# target-or-test-system: ERα (Homo sapiens)
# Sequence (P03372 1-595): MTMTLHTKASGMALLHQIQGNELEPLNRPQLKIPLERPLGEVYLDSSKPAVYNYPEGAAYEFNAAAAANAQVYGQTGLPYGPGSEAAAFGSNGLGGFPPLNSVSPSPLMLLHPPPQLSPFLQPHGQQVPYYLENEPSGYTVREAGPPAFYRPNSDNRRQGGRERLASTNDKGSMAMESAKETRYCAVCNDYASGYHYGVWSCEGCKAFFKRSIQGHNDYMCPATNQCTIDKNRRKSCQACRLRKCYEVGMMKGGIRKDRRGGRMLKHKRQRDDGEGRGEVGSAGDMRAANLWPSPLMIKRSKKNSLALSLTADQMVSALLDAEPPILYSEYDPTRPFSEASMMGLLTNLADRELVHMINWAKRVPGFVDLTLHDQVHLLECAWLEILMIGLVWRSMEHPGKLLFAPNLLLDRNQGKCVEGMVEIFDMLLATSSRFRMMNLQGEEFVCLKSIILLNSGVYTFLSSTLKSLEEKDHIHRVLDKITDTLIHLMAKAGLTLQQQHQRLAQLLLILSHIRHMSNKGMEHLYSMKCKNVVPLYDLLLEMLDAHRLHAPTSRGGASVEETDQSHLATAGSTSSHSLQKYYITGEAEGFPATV
# assay-details: ERE-dependent luciferase gene transcription in MCF-7:D5L cells
# Type: cell-based
# Set-up: MCF-7:D5L cells, a clone of MCF-7 cells stably transfected with an Estrogen Response Element (ERE)-endowed reporter plasmid; endogenous in cells; host or cells: MCF-7:D5L (MCF-7 clone carrying pERE-Gl-Luciferase)
# condition-info: concentration required to achieve 25% of the effect of 0.1 nM E2
Lab note: anything with Induction of ERE-dependent Luciferase Transcription (MCF-7:D5L cells) EC25E2 at or over 2 µM counts as TRUE; the rest go in FALSE.

Record excerpt, results attached:
[[record]]
compound = "COc1cc(-c2coc3c(C4OC(CO)C(O)C(O)C4O)c(O)cc(O)c3c2=O)ccc1O (centres unmarked)"
target_or_test_system = "ERα (Homo sapiens)"
class_name = "TRUE"

[[record]]
compound = "O=c1c(-c2ccc(OC3O[C@H](CO)[C@@H](O)[C@H](O)[C@H]3O)cc2)coc2c(C3O[C@H](CO)[C@@H](O)[C@H](O)[C@H]3O)c(O)cc(O)c12 (some centres unmarked)"
target_or_test_system = "ERα (Homo sapiens)"
class_name = "TRUE"

[[record]]
compound = "COc1cc(-c2coc3cc(O)cc(OC)c3c2=O)ccc1O"
target_or_test_system = "ERα (Homo sapiens)"
class_name = "FALSE"

[[record]]
compound = "O=c1c(-c2ccc(O)cc2)coc2cc(O)ccc12"
target_or_test_system = "ERα (Homo sapiens)"
class_name = "FALSE"

[[record]]
compound = "O=c1c(-c2ccc(O)c(O)c2)coc2c(C3OC(CO)C(O)C(O)C3O)c(O)cc(O)c12 (centres unmarked)"
target_or_test_system = "ERα (Homo sapiens)"
class_name = "TRUE"


Query: Is Induction of ERE-dependent Luciferase Transcription (MCF-7:D5L cells) EC25E2 for "COc1ccc(-c2coc3c(OC)c(O)ccc3c2=O)cc1" at or above 2 µM?
Result: TRUE

Query: Record O=c1c(-c2ccc(OC3O[C@H](CO)[C@@H](O)[C@H](O)[C@H]3O)cc2)coc2cc(OC3O[C@H](CO)[C@@H](O)[C@H](O)[C@H]3O)cc(O)c12 (some centres unmarked) ; criterion: Induction of ERE-dependent Luciferase Transcription (MCF-7:D5L cells) EC25E2 no lower than 2 µM. Met?
Result: FALSE

Query: Has "COc1cc(O)cc2occ(-c3ccc(O)c(O)c3)c(=O)c12" a recorded Induction of ERE-dependent Luciferase Transcription (MCF-7:D5L cells) EC25E2 greater than or equal to 2 µM?
Result: TRUE

Query: Does Induction of ERE-dependent Luciferase Transcription (MCF-7:D5L cells) EC25E2 meet or surpass 2 µM for "COc1cc(O)cc2occ(-c3ccc(O)cc3)c(=O)c12" ?
Result: TRUE

Query: // inclusive: Induction of ERE-dependent Luciferase Transcription (MCF-7:D5L cells) EC25E2 at least 2 µM? input: COc1cc(OC2OC(CO)C(O)C(O)C2O)cc2occ(-c3ccc(O)cc3)c(=O)c12 (centres unmarked)
Result: TRUE

Query: Test whether the compound "COc1ccc(-c2coc3cc(O)cc(O)c3c2=O)cc1" records Induction of ERE-dependent Luciferase Transcription (MCF-7:D5L cells) EC25E2 of 2 µM or higher.
Result: FALSE
